Target: deoxyadenosine kinase (dAK) (Giardia duodenalis, UniProt A8B9V6)
Sequence (A8B9V6 1-251): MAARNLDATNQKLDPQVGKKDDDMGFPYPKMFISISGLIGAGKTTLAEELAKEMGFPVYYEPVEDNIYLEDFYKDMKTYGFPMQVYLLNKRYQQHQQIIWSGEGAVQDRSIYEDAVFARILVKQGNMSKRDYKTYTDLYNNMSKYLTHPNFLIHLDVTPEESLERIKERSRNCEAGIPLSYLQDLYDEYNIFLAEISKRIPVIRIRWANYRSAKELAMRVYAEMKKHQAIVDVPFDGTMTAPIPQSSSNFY
Metric: Ki

INSERT INTO measurements (compound, recorded_result) VALUES
  ('Nc1ncnc2c1ncn2[C@H]1C[C@H](O)[C@@H](COP(=O)(O)OP(=O)(O)OP(=O)(O)O)O1 [dATP, deoxyadenosine triphosphate]', '840 nM');
